Data credit: patent US20210032312A1

# maps each entry to its koff
# EXPERIMENTAL SYSTEM: T1, human CD8A-Fc (recombinant human CD8 alpha fused to Fc fragment of human IgG1) (human, UniProt P01732 22-182, limits assumed)
# T1 construct: SPR ligand, captured by goat anti-human Fc; also called hCD8A-Fc; recombinant CD8 alpha; not shown: linker with flag (and polyhistidine) tag and Fc fragment of human IgG1; depends on which of the two constructs was used
# T1 sequence (P01732 22-182 limits assumed): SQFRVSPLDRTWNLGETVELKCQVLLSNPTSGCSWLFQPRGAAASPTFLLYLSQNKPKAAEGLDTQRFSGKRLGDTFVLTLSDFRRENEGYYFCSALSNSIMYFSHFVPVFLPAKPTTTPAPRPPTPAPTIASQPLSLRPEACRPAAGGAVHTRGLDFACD
# PROTOCOL DETAILS: SPR on recombinant human CD8 alpha after DFO conjugation, lower affinity population
Form entry: value (s⁻¹) — number only.

q: Would you kindly share the measured koff for CD8S368-DFO (designed binder, deferoxamine (DFO) conjugated to the free cysteine introduced by E54C, DFO conjugate of CD8S368) LPAPKNLVVSRVTEDSARLSWTAPDAAFDSFQIAYPEWPPPGEAIVLTVPGSCRSYDLTGLKPGTEYFVIIQGVKGGVESWPLSAIFTT ?
a: 9.98e-05

q: Would you kindly share the measured koff for CD8S366-DFO (designed binder, deferoxamine (DFO) conjugated to the free cysteine introduced by E54C, DFO conjugate of CD8S366) LPAPKNLVVSRVTEDSARLSWTAPDAAFDSFWITYPEWPDPGGEAIVLTVPGSCRSYDLTGLKPGTEYFVVIYGVKGGEIYSPLSAIFTT ?
a: 0.000106

q: Would you kindly share the measured koff for CD8S365-DFO (designed binder, deferoxamine (DFO) conjugated to the free cysteine introduced by E54C, DFO conjugate of CD8S365) LPAPKNLVVSRVTEDSARLSWTAPDAAFDSFGILYYEPVDSGEAITLPVPGSCRSYDLTGLKPGTEYWVVITGVKGGAPSTPLGTIFTT ?
a: 4.29e-05

Continuing:
q: Would you kindly share the measured koff for CD8S367-DFO (designed binder, deferoxamine (DFO) conjugated to the free cysteine introduced by E54C, DFO conjugate of CD8S367) LPAPKNLVVSRVTEDSARLSWTAPDAAFDSFAIAYPEWPPQGEAIVLTVPGSCRSYDLTGLKPGTEYFVVIYGVKGGSYSAPLSAIFTT ?
a: 0.000975

q: Would you kindly share the measured koff for CD8S370-DFO (designed binder, deferoxamine (DFO) conjugated to the free cysteine introduced by E54C, DFO conjugate of CD8S370) LPAPKNLVVSRVTEDSARLSWTAPDAAFDSFAITYIEKEHIEDGEAIVLTVPGSCRSYDLTGLKPGTEYWVPIWGVKGGANSWPLSAIFTT ?
a: 7.65e-05
